experimental system: UniProtKB Q27743
Reported values of Ki for individual entries
experimental endpoint: Ki (nM)

smiles representation	reported result
Cc1cc2c(C(=O)O)c(O)c(O)c(C(C)C)c2cc1C	1000
Cc1cc2c(C(C)C)c(O)c(O)c(C(=O)O)c2cc1Cc1ccc(C(F)(F)F)cc1	200
CCCc1c(O)c(O)c(C(=O)O)c2ccc(C)cc12	6000
Cc1ccc2c(C(=O)O)c(O)c(O)c(C(C)C)c2c1	2000
